Would you mind telling me the reported Population Pyknosed Nuclei (%) of each entry?
- Test system: Fibroblast
- assay-comment: Multiplex assay against human fibroblast
- Type: toxicity, cell-based
- test-parameters: 48 h, 1 µM, compound concentration 1 uM, replicate 2
Could you give me the number in %? Just the number is fine.

Fill in Population Pyknosed Nuclei (%) for record Cc1c(Cc2ccc3ccccc3n2)c2cc(F)ccc2n1CC(=O)O
14

Fill in Population Pyknosed Nuclei (%) for record CC(F)(F)CN1CCOc2c(nn(-c3ccccc3Cl)c2-c2ccc(Cl)cc2)C1=O
7

Fill in Population Pyknosed Nuclei (%) for record Cc1ccc(OCC(O)C(C)NC(C)C)c2c1CCC2.Cl (centres undefined)
20

Fill in Population Pyknosed Nuclei (%) for record COc1cc(C(=O)N2CC[C@@H](O)[C@@H](N)C2)cc2nc(-c3cc4ccccc4n3CC3CC3)n(C)c12.Cl
20

Fill in Population Pyknosed Nuclei (%) for record CN(C)C/C=C/C(=O)Nc1ccc(C(=O)N2CCCC(Nc3ncc(Cl)c(-c4c[nH]c5ccccc45)n3)C2)cc1 (centres undefined)
24

Fill in Population Pyknosed Nuclei (%) for record CC(C)(C)c1ccc(CSc2cnn(C(C)(C)C)c(=O)c2Cl)cc1
15

Fill in Population Pyknosed Nuclei (%) for record Nc1nc(CC(=O)Nc2ccc(CCNC[C@H](O)c3ccccc3)cc2)cs1
7

Fill in Population Pyknosed Nuclei (%) for record COc1c(Nc2ccc(S(C)(=O)=O)nc2C)ncnc1OC1CCN(C(=O)OC(C)C)CC1
20

Fill in Population Pyknosed Nuclei (%) for record COC(c1ccccc1)(c1ccccc1)[C@H](Oc1nc(C)cc(C)n1)C(=O)O
20
